Assay: Plasma pharmacokinetics in N-87 tumor-bearing nude mice
Type: in vivo
Details: mouse, po, 200 mg/kg single dose, median values (n = 6)
property_name: half-life (h)
Give just the number in h; leave the unit off.

Record C[C@H](O)C(=O)N1CCC(CCn2c(Sc3cc4c(cc3Br)OCO4)nc3c(N)ncnc32)CC1 . Reported half-life: 4.8

###

Experiment: Phase I clinical trial, human plasma pharmacokinetics of oral Compound 1
Assay type: in vivo
Conditions: human, plasma, po, 165 mg/m^2, Day 21, Cohort 3, Subject 301, 165 mg/m^2 (300 mg), oral daily
property_name: Cmax (ng/mL)
Express your answer in ng/mL, writing the number without its unit.

Lab book: Cmax of C[C@H](O)C(=O)N1CCC(CCn2c(Sc3cc4c(cc3Br)OCO4)nc3c(N)ncnc32)CC1 noted as 11800
